For each entry below, report its ELISA score (ratio of phage binding to CS1-Fc vs IgG-Fc) value.
Target: T1, CS1-Fc (human, UniProt Q9NQ25 23-226)
T1 construct: also called recombinant human CS1-Fc; CS1-Fc polypeptide; not shown: Fc portion of CS1-Fc
T1 sequence: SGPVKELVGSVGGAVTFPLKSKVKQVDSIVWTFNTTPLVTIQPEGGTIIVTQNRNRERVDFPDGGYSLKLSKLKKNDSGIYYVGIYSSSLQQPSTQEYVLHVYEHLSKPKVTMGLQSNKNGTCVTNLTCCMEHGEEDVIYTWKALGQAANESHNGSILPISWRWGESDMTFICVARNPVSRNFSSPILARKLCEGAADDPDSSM
Assay: phage ELISA, CS1-Fc captured on anti-human IgG1-Fc, anti-M13-HRP, A450 target / A450 IgG1-Fc
Answers are plain numbers, in ratio.

For orientation, consider the following solved cases.
SEQ ID NO 85 (designed binder) MGSWNEFNERLGAINHRLRALGGSEAELAAFEKEIAAFESELQAYKGKGNPEVEVLREGAAWIRAELQAYRHN	18.6
SEQ ID NO 78 (designed binder) MGSWAEFWFRLAAIQMRLYALGGSEAELAAFEKEIAAFESELQAYKGKGNPEVEDLRDYAAHIRQELQAYRHN	17.7
SEQ ID NO 69 (designed binder) MGSWYEFWSRLSAIHVRLEALGGSEAELAAFEKEIAAFESELQAYKGKGNPEVEDLRAYAAFIRSELQAYRHN	16.9
SEQ ID NO 62 (designed binder) MGSWHFFKARLAYIKQGLEALGGSEAELALFEEFIAEFESDLQQYKGKGNPEVEALRKEAAAIRDELQAYRHN	13.5
SEQ ID NO 86 (designed binder) MGSWIEFQTRLEAIYQRLDALGGSEAELAAFEKEIAAFESELQAYKGKGNPEVETLRWHAAGIRQYLQAYRHN	6.03

Go through the list and state ELISA score (ratio of phage binding to CS1-Fc vs IgG-Fc) for each entry.
1. SEQ ID NO 89 (designed binder) MGSWSEFNSRLDAIFDRLFALGGSEAELAAFEKEIAAFESELQAYKGKGNPEVEELRSHAANIRASLQAYRHN
2. SEQ ID NO 72 (designed binder) MGSWYEFWHRLTAIEQRLWALGGSEAELAAFEKEIAAFESELQAYKGKGNPEVEDLRSYAAEIRWRLQAYRHN
3. SEQ ID NO 74 (designed binder) MGSWSEFWMRLTAIDMRLAALGGSEAELAAFEKEIAAFESELQAYKGKGNPEVEELRDYAAVIRESLQAYRHN
4. SEQ ID NO 79 (designed binder) MGSWSEFWTRLAAIDMRLNALGGSEAELAAFEKEIAAFESELQAYKGKGNPEVEDLRDYAAQIREELQAYRHN
5. SEQ ID NO 88 (designed binder) MGSWEEFYVRLDAIWERLEALGGSEAELAAFEKEIAAFESELQAYKGKGNPEVEGLRWHAAGIRERLQAYRHN

[19.6, 8.75, 18.3, 18.7, 13.5]
